# Assayed system: Fibroblast growth factor 2 (Homo sapiens) (UniProt P09038)
# Sequence (P09038 whole entry, looked up): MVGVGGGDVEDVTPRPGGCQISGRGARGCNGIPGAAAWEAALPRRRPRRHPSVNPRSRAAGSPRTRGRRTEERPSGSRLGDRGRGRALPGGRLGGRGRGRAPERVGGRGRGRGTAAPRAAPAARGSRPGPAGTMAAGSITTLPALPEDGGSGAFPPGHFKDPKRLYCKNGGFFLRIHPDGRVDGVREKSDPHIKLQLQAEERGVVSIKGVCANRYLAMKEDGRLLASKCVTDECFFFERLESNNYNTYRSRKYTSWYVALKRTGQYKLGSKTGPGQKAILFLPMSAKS
# Test method notes: basic fibroblast growth factor binding to printed compounds – biochemical, small-molecule microarray, 635/667 nm fluorescence, primary screen (AID 1133)
# Test conditions: FGF2, fluorescence 635/667, higher = more signal
Metric: composite z-score
Answers are plain numbers.

Before answering, review these 5 worked examples.
Compound	composite z-score
CC(C)NC(=O)[C@@]1(C)c2ccccc2C(=O)N(Cc2ccc(OC(F)(F)F)cc2)[C@H]1c1ccc(CO)cc1	-0.843
CC(C)[Si](C#C[Si](C(C)C)(C(C)C)C(C)C)(O[C@H](c1ccccc1)c1cn(Cc2ccccc2)nn1)C(C)C	0.2
COc1ccccc1CN1C(=O)c2ccccc2[C@](Cc2ccccc2I)(C(=O)O)[C@@H]1c1ccc(CO)cc1	1.33
CCCC#C[Si](O[C@H](CC)c1cn([C@H](C)c2ccccc2)nn1)(C(C)C)C(C)C	0.484
CC(C)c1ccc(NN2C(C(O)c3ccc(C#N)cc3)C=CC3C(=O)N(c4ccccc4)C(=O)C32)cc1 (stereo unspecified)	-0.14

Report composite z-score for every entry below.
1. CC1CC/C=C\[C@H]2OC34C=CCN(C(C)(C)C)C(=O)[C@H]3N(CCCCCO)C(=O)[C@@H]4C2C(=O)O1 (stereo partly specified)
2. CC(C)C(O)C1C=CC2C(=O)N(c3ccccc3)C(=O)C2N1Nc1ccccc1 (stereo unspecified)
3. CCCCCN1CC=CC23O[C@@H]4C=CCCOC(=O)C4[C@H]2C(=O)N(CCCCCCO)[C@@H]3C1=O (stereo partly specified)
4. COc1cccc(C)c1NC(=O)O[C@H]1[C@H](OC(=O)Nc2ccccc2-c2ccccc2)[C@H](OC(=O)Nc2ccccc2-c2ccccc2)[C@@H](OC)O[C@@H]1CO
5. NCCCCCCNC(=O)[C@@H]1C[C@@H]2C(=O)N[C@@H](CCCCN)C(=O)N2[C@@H]1c1ccc(O)cc1
6. O=C1OCCC=C[C@H]2OC34C=CCN(Cn5nnc6ccccc65)C(=O)[C@H]3N(CCCO)C(=O)[C@@H]4C12 (stereo partly specified)
7. NC(=O)[C@@]1(Cc2ccccc2)COC(c2ccc(OCCCO)cc2)=N1
8. CCOC(=O)C[C@H]1[C@H](OC(=O)c2cc3ccccc3oc2=O)[C@@H](NC(=O)CC(C)C)c2cc(OCCCO)ccc2N1C(=O)c1ccc2ccccc2n1

1. -0.447
2. -0.11
3. -0.439
4. 0.79
5. 1
6. -0.446
7. 0.387
8. 1.51

Hey, quick one: what's composite z-score for each of these?
1. CCOC(=O)[C@@H]1CCCCN1C(=O)C(=O)OC
2. COC(=O)c1c(CC[C@@H](CO)NC(=O)N2CCC[C@H]2Cn2cc(C3(O)CCCCC3)nn2)oc(C(C)=O)c1C(=O)OC
3. COCCOC(=O)N1C(=O)[C@@]2(c3cc(C#CC4=CCCCC4)ccc31)[C@H](c1ccccc1OCCO)N1[C@H](c3ccccc3)[C@H](c3ccccc3)OC(=O)[C@H]1[C@@H]2C(=O)N1CCN(c2ncccn2)CC1
4. CCCC[C@@H](O)C1=C(COC)C[C@H]2C(=O)N(C)C(=O)[C@H]2[C@H]1CO

0.894
1.59
0.779
0.201

Field: composite z-score. Fill in for each record below.
1. C=CCC(OC(C)=O)[C@@H]1[C@@H](N(Cc2ccc(-c3ccccc3)cc2)C(=O)c2ccc(-c3ccccc3)cc2)c2cc(OCCCO)ccc2N1C(=O)c1ccc2ccccc2c1 (stereo partly specified)
2. CCOC(=O)C[C@H]1[C@H](OC(=O)c2ccc(C(=O)c3ccccc3)cc2)[C@@H](NC(=O)c2ccc(-c3ccccc3)cc2)c2cc(OCCCO)ccc2N1C(=O)Cc1ccc(OC)cc1
3. [N-]=[N+]=Nc1ccccc1C[C@]1(C(=O)NCC(O)CO)COC(c2ccc(OCCCO)cc2)=N1 (stereo partly specified)
4. CC(C)C(CO)N1C(=O)[C@@H]2C3C(=O)OCCC/C=C\[C@H]3OC23C=CCN(Cn2nnc4ccccc42)C(=O)[C@@H]13 (stereo partly specified)
5. COC(=O)[C@@H]1N=C(c2ccc(OCCCO)cc2)O[C@@H]1c1ccccc1

1. -0.193
2. -0.205
3. -0.483
4. -1.08
5. -0.837

State the recorded composite z-score for every item in the following list.
1. CC(C)N1C(=O)C[C@@](C(=O)O)(c2ccc([N+](=O)[O-])cc2)[C@H]1c1ccc(CO)cc1
2. NCCCCCNC(=O)[C@@H]1C[C@@H]2C(=O)N[C@@H](CCCCN)C(=O)N2[C@@H]1c1ccc(O)cc1
3. COc1cc(NN2C(C(O)c3ccco3)C=CC3C(=O)N(C)C(=O)C32)cc(OC)c1OC (stereo unspecified)
4. O=C(NCCN1CCOCC1)[C@@H]1c2ccccc2C(=O)N(C2Cc3ccccc3C2)[C@H]1c1ccc(CO)cc1

1. -0.798
2. 1.74
3. 0.127
4. 0.082
